Cited source: patent US20240239894A1

Assign kon to each entry below.
# experimental-system: T1, HumanB7-H4 (Homo sapiens, UniProt Q7Z7D3)
# T1 construct: Human B7H4 ECD; FLAG; 10His; made in house
# T1 sequence (Q7Z7D3 25-259 limits assumed): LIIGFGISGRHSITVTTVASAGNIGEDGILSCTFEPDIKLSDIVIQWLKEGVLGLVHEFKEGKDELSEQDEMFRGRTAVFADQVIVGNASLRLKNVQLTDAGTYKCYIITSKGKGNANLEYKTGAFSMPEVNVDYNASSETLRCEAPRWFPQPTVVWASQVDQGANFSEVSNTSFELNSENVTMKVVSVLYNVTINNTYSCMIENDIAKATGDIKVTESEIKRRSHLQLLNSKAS
# experimental-protocol: ForteBio Octet affinity
# Format: binding
# protocol-conditions: hIgG1-TM (n = 4-7)
The answer is to be given in M⁻¹ s⁻¹; state only the numeric part.

Q: Input ZY0EP0-C07: anti-B7-H4 antibody clone, VH SEQ ID NO: 39, VL SEQ ID NO: 40 (antibody, V domains shown) VH: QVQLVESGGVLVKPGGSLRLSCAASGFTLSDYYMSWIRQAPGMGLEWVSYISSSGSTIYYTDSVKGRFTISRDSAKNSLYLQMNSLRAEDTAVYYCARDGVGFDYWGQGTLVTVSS VL: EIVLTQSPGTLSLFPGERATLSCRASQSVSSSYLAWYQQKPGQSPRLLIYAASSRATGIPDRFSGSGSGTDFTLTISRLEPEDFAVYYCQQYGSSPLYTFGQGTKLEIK , output reported kon.
Ans: 41600

Q: Query kon for ZY0EQD-E02: anti-B7-H4 antibody clone, VH SEQ ID NO: 33, VL SEQ ID NO: 34 (antibody, V domains shown) VH: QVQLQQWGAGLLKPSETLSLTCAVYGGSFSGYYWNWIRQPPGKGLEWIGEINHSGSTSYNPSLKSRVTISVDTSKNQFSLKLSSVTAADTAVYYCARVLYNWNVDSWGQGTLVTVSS VL: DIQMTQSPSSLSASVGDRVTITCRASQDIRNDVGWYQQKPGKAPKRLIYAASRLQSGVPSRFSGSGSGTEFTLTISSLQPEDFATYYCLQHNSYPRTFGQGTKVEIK
Ans: 193000
